- Condition summary: in ethanol, 303.15 K
Measurement label: solubility (mole fraction)
# respond with the number and nothing more

Qu. Fill in the blank: the reported solubility (mole fraction) of COc1ccc(CN2CCNCC2)c(OC)c1OC.Cl.Cl is ____.
Ans. 0.000987

* * *

- Condition summary: in acetone, 323.15 K
Measurement label: solubility (mole fraction)
# respond with the number and nothing more

Qu. Fill in the blank: the reported solubility (mole fraction) of COc1ccc(CN2CCNCC2)c(OC)c1OC.Cl.Cl is ____.
Ans. 1.3e-05

* * *

- Condition summary: in DMF, 303.15 K
Measurement label: solubility (mole fraction)

Qu. Fill in the blank: the reported solubility (mole fraction) of COc1ccc(CN2CCNCC2)c(OC)c1OC.Cl.Cl is ____.
Ans. 0.000754
